// data source = patent US20240101683A1

target: T1, Murine FGFR2IIIb (murine, UniProt P21803-2 22-263, limits assumed); assay: ELISA, coated antigen, anti-Fab HRP
T1 construct: Construct used in the ELISA is not described
T1 sequence (P21803 other isoform, or with tags, fused parts or gaps limits assumed): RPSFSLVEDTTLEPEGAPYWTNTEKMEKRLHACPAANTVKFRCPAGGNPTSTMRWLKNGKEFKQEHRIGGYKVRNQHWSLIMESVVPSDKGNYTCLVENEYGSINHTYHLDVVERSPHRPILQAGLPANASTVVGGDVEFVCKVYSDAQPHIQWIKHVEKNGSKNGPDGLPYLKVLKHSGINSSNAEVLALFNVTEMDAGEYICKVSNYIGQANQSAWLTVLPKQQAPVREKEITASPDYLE
# pEC50 listing for each entry below
To interpret pEC50, take it as minus log10 of a concentration measured in moles per litre.

Known pEC50 results, listed for orientation:
Binder	Data value
FWB1905 (antibody, V domains shown) VH: QVQLVQSGAEVKKPGSSVKVSCKASGYIFTSYNVHWVRQAPGQGLEWIGSIYPDNGDSSYNQNYKGRATITADKSTSTAYMELSSLRSEDTAVYYCARGDFAYWGQGTLVTVSS VL: DIQMTQSPSSLSASVGDRVTITCKASNGVSNDIAWYQQKPGKAPKLLIYSASYRYSGVPSRFSGSGSGTDFTFTISSLQPEDIATYYCQQHSTTPYTFGQGTKLEIK	9.58
FWB1910 (antibody, V domains shown) VH: QVQLVQSGAEVKKPGSSVKVSCKASGYIFTTYNVHWVRQAPGQGLEWIGSIYPDNGDTSYDEDFKGRATITADKSTSTAYMELSSLRSEDTAVYYCARGDFAYWGQGTLVTVSS VL: DIQMTQSPSSLSASVGDRVTITCKVSQGVSNDAVWYQQKPGKAPKLLIYSASYRYTGVPSRFSGSGSGTDFTFTISSLQPEDIATYYCQQHSTTPYTFGQGTKLEIK	9.53
FWB1919 (antibody, V domains shown) VH: QVQLVQSGAEVKKPGSSVKVSCKASGYIFTSYNVHWVRQAPGQGLEWIGSIYPDNGDSSYNQNYRGRATITADKSTSTAYMELSSLRSEDTAVYYCARGDFAYWGQGTLVTVSS VL: DIQMTQSPSSLSASVGDRVTITCRGSNGISNDIAWYQQKPGKAPKLLIYSASYRYSGVPSRFSGSGSGTDFTFTISSLQPEDIATYYCQQHSTTPYTFGQGTKLEIK	9.50

Suppose we examine the binder FWB1914 (antibody, V domains shown) VH: QVQLVQSGAEVKKPGSSVKVSCKASGYIFTSYNVHWVRQAPGQGLEWIGSIYPDNGDSSYNNNYKGRATITADKSTSTAYMELSSLRSEDTAVYYCARGDFAYWGQGTLVTVSS VL: DIQMTQSPSSLSASVGDRVTITCKASNGVSNDIAWYQQKPGKAPKLLIYSASYRYSGVPSRFSGSGSGTDFTFTISSLQPEDIATYYCQQHSTTPYTFGQGTKLEIKR ; what pEC50 value has been reported?
9.60

I'd like to know its pEC50. The binder in question is FWB1916 (antibody, V domains shown) VH: QVQLVQSGAEVKKPGSSVKVSCKASGYIFTSYNVHWVRQAPGQGLEWIGSIYPDNGDSSYNQNYKGRATITADKSTSTAYMELSSLRSEDTAVYYCARGDFAYWGQGTLVTVSS VL: DIQMTQSPSSLSASVGDRVTITCKASNGISNDIAWYQQKPGKAPKLLIYSASYRYSGVPSRFSGSGSGTDFTFTISSLQPEDIATYYCQQHSTTPYTFGQGTKLEIK
9.54

Which pEC50 value belongs to FWB1925 (antibody, V domains shown) VH: QVQLVQSGAEVKKPGSSVKVSCKASGYIFTSYNVHWVRQAPGQGLEWIGSIYPDNGDSTYDEDYRGRATITADKSTSTAYMELSSLRSEDTAVYYCARGDFAYWGQGTLVTVSS VL: DIQMTQSPSSLSASVGDRVTITCKGSNGISNDIAWYQQKPGKAPKLLIYSASYRYSGVPSRFSGSGSGTDFTFTISSLQPEDIATYYCQQHSTTPYTFGQGTKLEIK ?
10.04

Name the recorded pEC50 for FWB1904 (antibody, V domains shown) VH: QVQLVQSGAEVKKPGSSVKVSCKASGYIFTSYNVHWVRQAPGQGLEWIGSIYPDNGDTSYNQNFRGRATITADKSTSTAYMELSSLRSEDTAVYYCARGDFAYWGQGTLVTVSS VL: DIQMTQSPSSLSASVGDRVTITCKASNGISNDIAWYQQKPGKAPKLLIYSASYRYSGVPSRFSGSGSGTDFTFTISSLQPEDIATYYCQQHSTTPYTFGQGTKLEIK .
9.51
